Give measured IC50 for each item. Keep answers brief.
Target: TEAD
Sequence (P28347 209-426): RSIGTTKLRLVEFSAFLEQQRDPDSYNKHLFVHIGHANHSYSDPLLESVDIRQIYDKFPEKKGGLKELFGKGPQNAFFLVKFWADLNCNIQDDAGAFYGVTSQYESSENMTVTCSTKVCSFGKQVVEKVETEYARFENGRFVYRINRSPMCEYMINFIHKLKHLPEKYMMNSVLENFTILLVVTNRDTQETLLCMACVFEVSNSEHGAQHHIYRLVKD
Assay: IC50 for TEAD binding; method not named in the example (TR-FRET test is the filing's screening method)
Positions of bridges follow the written chain, without caps; N, C: chain ends. Non-standard residues stand in square brackets, D forms with d. No end group written: not given here. hCys = N[C@@H](CCS)C(=O)O; Orn = NCCC[C@H](N)C(=O)O; Dab = NCC[C@H](N)C(=O)O
One number for each entry, in nM.

1) VPF[hCys]LR[Dab]LPDSFCKPPE (disulfide 4-13) [polypeptide of SEQ ID NO.: 6 (VPF(Hcy)LR(Dab)…)] : 28

Query binder follows.
Field IC50 (entry VPF[hCys]LR[Orn]LPDSFCKPPE (disulfide 4-13) [polypeptide of SEQ ID NO.: 5 (VPF(Hcy)LR(Orn)…)] ) reads 43
